Please provide measured IC50 for the entries that follow.
- ASSAY TARGET: UniProtKB Q9H0H5
- Sequence (Q9H0H5 whole entry): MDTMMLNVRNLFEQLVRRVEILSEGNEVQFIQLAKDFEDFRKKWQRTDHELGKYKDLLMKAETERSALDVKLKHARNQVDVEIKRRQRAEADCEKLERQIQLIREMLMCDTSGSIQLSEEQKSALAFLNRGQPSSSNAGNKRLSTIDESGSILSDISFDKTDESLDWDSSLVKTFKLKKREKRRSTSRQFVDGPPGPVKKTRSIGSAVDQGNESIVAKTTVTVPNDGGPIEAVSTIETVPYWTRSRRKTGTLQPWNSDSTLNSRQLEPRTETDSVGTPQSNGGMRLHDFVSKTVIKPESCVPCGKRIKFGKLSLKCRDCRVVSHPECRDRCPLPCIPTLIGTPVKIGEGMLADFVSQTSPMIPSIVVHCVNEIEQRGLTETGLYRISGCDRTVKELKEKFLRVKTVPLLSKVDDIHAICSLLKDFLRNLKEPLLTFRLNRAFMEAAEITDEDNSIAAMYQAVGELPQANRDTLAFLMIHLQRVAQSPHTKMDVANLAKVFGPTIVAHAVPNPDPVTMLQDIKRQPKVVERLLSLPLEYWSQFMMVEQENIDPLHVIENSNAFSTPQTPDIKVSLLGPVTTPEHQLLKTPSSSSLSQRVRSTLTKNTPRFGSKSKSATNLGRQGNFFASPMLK
- METHOD SUMMARY: MgcRacGAP GTPase-activating activity inhibitors, confirmation, biochemical, ADP Hunter fluorescence, primary and confirmatory (AID 624330)
- Assay type: functional
Calls of active or inactive are those of the source.

The examples below pair each entry with its known result.
COMPOUND: CC/C(=N\c1ccc(N)cc1)C1=C(O)C(C(=O)OC)C(C)(C)CC1=O (stereo unspecified)
IC50: 6.8 µM (active)

COMPOUND: CCN(CC)c1ccc(NC(=O)c2ccc3c(c2)OCO3)cc1
IC50: 52.9 µM (active)

COMPOUND: COc1cc(/C=N\NC(=O)c2ccc(Cn3nc([N+](=O)[O-])c(Cl)c3C)o2)ccc1O
IC50: 30.5 µM (active)

Would you be so kind as to report IC50 for each listed record?
1. CCN1CCN(CC(=O)Nc2nc3ccc(OC)cc3s2)CC1
2. OC1=C2Sc3ccc(Cl)cc3N=C2CCC1
3. COc1ccc(N=Nc2cc(OC)c(N)cc2OC)cc1
4. c1cc2c(cc1CN1CCN(C3CCCCCC3)CC1)OCO2
5. COc1ccc2c(c1OC)C(=O)OC2CC(=O)c1ccc(O)c(O)c1 (stereo unspecified)

stdout:
1. 74.3 µM (active)
2. 42 µM (active)
3. 35.2 µM (active)
4. 91.9 µM (active)
5. 56.1 µM (active)

// input: 6 compounds below; output: IC50 for each
1. COc1cc2c(cc1NC(=S)Nc1cccc3ccccc13)oc1ccccc12
2. O=S(=O)(c1ccc2ccccc2c1)N1CCN(C2CCN(Cc3ccccc3)CC2)CC1
3. O=C(CN1CCN(Cc2ccccc2)CC1)Nc1ccc(F)c(F)c1
4. COc1ccc(NC(=O)CNCc2cccs2)c(OC)c1
5. CSc1ccccc1NC(=O)CNCCCN1CCOCC1
6. CN1CCN(/C=N/C2=NN(c3cccc(C(F)(F)F)c3)CC2)CC1

stdout:
["70.2 µM (active)", "108 µM (active)", "73.9 µM (active)", "284 µM (active)", "81.9 µM (active)", "33.9 µM (active)"]

Dear colleague, could you send me IC50 for each of the items below? Thanks.
1. C(=N\Nc1ccccn1)/c1ccc(N2CCOCC2)cc1
2. Sc1nnc(Nc2ccccc2Cl)s1
3. Cc1cc(C)c2nc(C)cc(N/N=C/c3ccc(O)cc3)c2c1
4. CCOc1cc(/C=N/NC(=O)c2c(-c3ccccc3)noc2C)ccc1O

stdout:
1: 134 µM (active); 2: 54.8 µM (active); 3: 18.2 µM (active); 4: 55.5 µM (active)

* * *

- ASSAY TARGET: Mannose-6-phosphate isomerase (Homo sapiens)
- Sequence (P34949 whole entry): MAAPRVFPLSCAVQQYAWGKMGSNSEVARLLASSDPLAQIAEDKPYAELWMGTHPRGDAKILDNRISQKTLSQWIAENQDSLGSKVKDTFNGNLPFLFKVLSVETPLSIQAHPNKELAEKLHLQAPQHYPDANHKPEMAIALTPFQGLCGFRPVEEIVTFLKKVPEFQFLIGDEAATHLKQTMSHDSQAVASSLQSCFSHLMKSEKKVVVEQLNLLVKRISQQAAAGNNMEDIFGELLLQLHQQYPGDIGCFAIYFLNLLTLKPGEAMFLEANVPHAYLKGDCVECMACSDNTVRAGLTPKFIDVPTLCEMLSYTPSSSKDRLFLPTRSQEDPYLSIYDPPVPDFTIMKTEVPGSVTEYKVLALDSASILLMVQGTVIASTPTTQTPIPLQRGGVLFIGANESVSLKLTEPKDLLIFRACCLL
- METHOD SUMMARY: human PMI inhibitors, high substrate, primary screen, biochemical, fluorescence intensity, high mannose 6-phosphate (AID 1220)
Active and inactive are the calls of the source.
OUTCOME MEASURE: IC50

Would you please look over these solved cases?
MOLECULE: Cc1cc(C)c2cc(C=O)c(Cl)nc2c1
ENDPOINT RESULT: 17.1 µM (active)

MOLECULE: COc1ccc(N2CCC(CNC(=O)Nc3ccccc3)C2)cc1 (stereo not given)
ENDPOINT RESULT: > 50 µM (not active)

MOLECULE: O=C(O)CCNc1cc2ccccc2cc1C(=O)O
ENDPOINT RESULT: > 50 µM (not active)

MOLECULE: CCOc1cc(N2CCOCC2)c(OCC)cc1N=C(S)NCCCOC
ENDPOINT RESULT: > 50 µM (not active)

Would you kindly look at the next entry?
get_value(item= "COc1cc(OC)c(-c2c3cc(O)c(=O)cc-3oc3cc(O)c(O)cc23)cc1OC" , readout=IC50) returns > 50 µM (not active)

* * *

- ASSAY TARGET: Sentrin-specific protease 6 (Homo sapiens);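 also: Luminescence-based dose-response confirmatory assay of SENP6 inhibition, following up an ultra-high-throughput screen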
- Sequence (Q9GZR1 whole entry): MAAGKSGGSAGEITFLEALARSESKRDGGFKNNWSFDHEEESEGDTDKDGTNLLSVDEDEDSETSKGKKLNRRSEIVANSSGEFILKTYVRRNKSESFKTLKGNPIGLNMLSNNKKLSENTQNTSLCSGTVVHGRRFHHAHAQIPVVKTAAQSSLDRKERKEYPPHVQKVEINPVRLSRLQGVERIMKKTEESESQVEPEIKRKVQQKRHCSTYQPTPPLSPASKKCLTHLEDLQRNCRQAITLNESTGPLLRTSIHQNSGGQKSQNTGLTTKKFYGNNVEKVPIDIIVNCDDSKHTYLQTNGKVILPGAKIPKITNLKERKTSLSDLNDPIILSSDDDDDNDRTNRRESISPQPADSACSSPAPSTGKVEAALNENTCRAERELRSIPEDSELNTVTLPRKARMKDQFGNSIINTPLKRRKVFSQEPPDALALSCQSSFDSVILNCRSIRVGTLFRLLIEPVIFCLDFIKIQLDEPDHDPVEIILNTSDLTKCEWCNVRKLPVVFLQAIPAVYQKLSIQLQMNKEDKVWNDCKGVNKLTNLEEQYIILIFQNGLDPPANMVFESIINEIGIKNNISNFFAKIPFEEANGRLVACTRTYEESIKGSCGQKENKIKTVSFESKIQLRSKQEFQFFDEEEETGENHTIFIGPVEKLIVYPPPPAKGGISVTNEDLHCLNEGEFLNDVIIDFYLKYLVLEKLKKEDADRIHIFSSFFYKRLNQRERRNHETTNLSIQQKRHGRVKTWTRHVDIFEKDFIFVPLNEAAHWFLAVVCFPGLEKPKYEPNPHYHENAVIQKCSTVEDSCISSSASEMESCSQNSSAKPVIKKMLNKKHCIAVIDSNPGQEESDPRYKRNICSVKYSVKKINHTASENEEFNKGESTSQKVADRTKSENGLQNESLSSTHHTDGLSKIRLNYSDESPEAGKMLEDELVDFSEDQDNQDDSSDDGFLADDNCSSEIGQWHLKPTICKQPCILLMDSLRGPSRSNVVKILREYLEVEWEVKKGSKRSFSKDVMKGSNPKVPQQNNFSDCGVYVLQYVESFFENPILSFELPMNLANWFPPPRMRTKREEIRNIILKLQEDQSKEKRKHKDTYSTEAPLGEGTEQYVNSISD
- Format: functional
Calls of active or inactive are those of the source.
Assignment: determine reported IC50 for the given molecules.

MOLECULE: CC(=O)Nc1cccc(-c2csc(Nc3ccc(C)cn3)n2)c1
ENDPOINT RESULT: 12.7 µM (active)

MOLECULE: Oc1nc(Nc2ccccc2)cc2ccccc12
ENDPOINT RESULT: 0.345 µM (active)

MOLECULE: CCOC(=O)/C=C(\C)N1N=C(c2ccccc2)CC1c1ccccc1 (centres undefined)
ENDPOINT RESULT: 19.7 µM (active)

Please examine the following record next.
Lab book: IC50 of "O=C1/C(=C/N(C(=O)c2ccco2)c2ccc(Br)cc2)Sc2ccccc21" noted as 19 µM (active)

* * *

Give measured EC50 for each item. Keep answers brief.
- Tested on: Streptococcus
- METHOD SUMMARY: Group A Streptococcus viability loss, dose response, counter-screen for streptokinase expression inhibitor project, luminescence, BacTiterGlo (AID 1915);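 also: potency for reduction of bacterial viability or growth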
- Assay type: functional, organism-based
Active and inactive are the calls of the source.

Worked examples, 6 compounds total:
COMPOUND: Cc1ccc(Cn2c(C(CO)Nc3nc(-c4ccc(F)cc4)cs3)nc3ccccc32)cc1 (configuration not stated)
EC50: 5.23 µM (active)
--
COMPOUND: O=C1CCSc2ccc(Cl)cc2N1Cc1ccc(Cl)cc1
EC50: 49.5 µM (active)
--
COMPOUND: CCN1CCN(C(=O)N[C@@H](C(=O)N[C@@H]2C(=O)N3[C@@H]2SC(C)(C)[C@@H]3C(=O)O)c2ccccc2)C(=O)C1=O [PIPERACILLIN SODIUM]
EC50: 0.746 µM (active)
--
COMPOUND: O=C(c1ccc(Cl)cc1)c1cnc(Nc2ccccc2Cl)s1
EC50: 30.5 µM (active)
--
COMPOUND: CC(C)(C)c1ccc(CSc2cnn(C(C)(C)C)c(=O)c2Cl)cc1
EC50: 123 µM (active)
--
COMPOUND: COc1cc(NS(=O)(=O)c2ccc(C)cc2)c2ncccc2c1
EC50: 21.7 µM (active)

get_value(item= "O=C(/C(=N/Nc1cccc([N+](=O)[O-])c1)C(=O)C(F)(F)F)c1ccc(Br)cc1" , readout=EC50) returns 5.97 µM (active)

* * *

- ASSAY TARGET: Replicative DNA helicase DnaB (Mycobacterium tuberculosis, UniProt P9WMR3)
- METHOD SUMMARY: DnaB intein splicing inhibitors, dose response, biochemical, cell-free fluorescence (AID 449749)
- Assay type: functional
Calls of active or inactive are those of the source.
Outcomes you can answer with include only these: active, inactive

Example results:
MOLECULE: Oc1nc(Nc2ccccc2)cc2ccccc12
CATEGORY LABEL: inactive
//
MOLECULE: CCCCCCCCCCOC(=O)C[n+]1c(COc2ccccc2C)n(C)c2ccccc21
CATEGORY LABEL: active

stdin: Hi, sorry to bother you, what did the test record for CC(C)(C)c1cc(C(c2cccnc2)N2CCN(CCO)CC2)cc(C(C)(C)C)c1O (stereo unspecified) ?
stdout: active

stdin: Could you please tell me the result logged for "COc1ccc(S(=O)(=O)/N=C2\C=C(NS(=O)(=O)c3ccccc3)C(=O)c3ccccc32)cc1" in this assay?
stdout: active

stdin: Assay result, entry CC(C)(c1ccccc1)c1ccc(OCC2CO2)cc1 (stereo unspecified) — outcome?
stdout: active

stdin: Can you look up the reported call for "CN(CC(=O)Nc1ccc(N2CCOCC2)cc1)CC(=O)Nc1cccc(C#N)c1" for me?
stdout: active

Every entry's value here was drawn from ChEMBL document CHEMBL1201862.
